assay: Thermo Scientific Acclaim RSLC 120 C18, 100 × 2.1 mm, 2.2 µm, 30 °C; A: 90% water + 10% methanol + 0.01% formic acid + 5 mM ammonium formate; B: methanol + 0.01% formic acid + 5 mM ammonium formate; gradient (min/%B) 0.1/1 3/39 14/99.9 16/99.9; details: stereoisomer not certain
quantity: LC retention time (min)
Give the value in min but do not write min after it.

Solved entries:
Asked: Which LC retention time value is on record for "Cc1ccc(NC=O)c(C)c1" ?
Given back: 6.67

Asked: Which LC retention time value is on record for CNC(C)C(=O)c1ccc2c(c1)OCO2 (stereo unspecified) ?
Given back: 3.81

Asked: Which LC retention time value is on record for COc1ccc(C2Sc3ccccc3N(CCN(C)C)C(=O)C2OC(C)=O)cc1 (stereo unspecified) ?
Given back: 7.18

Asked: Which LC retention time value is on record for CC(=O)OCC(=O)C1(O)CCC2C3CCC4=CC(=O)CCC4(C)C3C(O)CC21C (stereo unspecified) ?
Given back: 8.8

Asked: Which LC retention time value is on record for CCOP(=S)(Oc1ccc(C#N)cc1)c1ccccc1 (stereo unspecified) ?
Given back: 10.9

Next:
Asked: Which LC retention time value is on record for "CCCCC1=NC2(CCCC2)C(=O)N1Cc1ccc(-c2ccccc2-c2nn[nH]n2)cc1" ?
Given back: 9.44

Asked: Which LC retention time value is on record for "COc1ccc(CN(CCN(C)C)c2ccccn2)cc1" ?
Given back: 5.89

Asked: Which LC retention time value is on record for "Cc1c(C(C)C)c(=O)n(-c2ccccc2)n1C" ?
Given back: 7.23

Asked: Which LC retention time value is on record for "CCCc1nn(C)c2c(=S)nc(-c3cc(S(=O)(=O)N4CCN(CCO)CC4)ccc3OCC)[nH]c12" ?
Given back: 10.5

Asked: Which LC retention time value is on record for "CC(C)CCOc1ccc(NC(=S)Nc2ccc(OCCC(C)C)cc2)cc1" ?
Given back: 13

Asked: Which LC retention time value is on record for C1=CCC(c2cccnc2)NC1 (stereo unspecified) ?
Given back: 2.68

* * *

test: Thermo Scientific Acclaim RSLC 120 C18, 100 × 2.1 mm, 2.2 µm, 30 °C; A: 90% water + 10% methanol + 0.01% formic acid + 5 mM ammonium formate; B: methanol + 0.01% formic acid + 5 mM ammonium formate; gradient (min/%B) 0.1/1 3/39 14/99.9 16/99.9; details: stereoisomer not certain
hey, just use fulfilled if measured LC retention time is less than 8 min, otherwise not fulfilled

Example cases with answers are listed next.
Asked: Strictly below 8 min: is that where LC retention time of "CCCCCn1nc(C(=O)c2cccc3ccccc23)c2ccccc21" sits?
Given back: not fulfilled

Asked: Strictly below 8 min: is that where LC retention time of "CCCCCCn1c(=O)c2c(ncn2C)n(C)c1=O" sits?
Given back: not fulfilled

Asked: Strictly below 8 min: is that where LC retention time of CCOC(=O)C(c1ccccc1)C1CCCCN1 (stereo unspecified) sits?
Given back: fulfilled

Asked: Strictly below 8 min: is that where LC retention time of "CNC(=O)Oc1ccc(N(C)C)c(C)c1" sits?
Given back: fulfilled

Asked: Strictly below 8 min: is that where LC retention time of CCC(C)C(=O)OC1CC(O)C=C2C=CC(C)C(CCC(O)CC(O)CC(=O)O)C21 (stereo unspecified) sits?
Given back: not fulfilled

Asked: Strictly below 8 min: is that where LC retention time of "CCOC(=O)Nc1cccc(OC(=O)Nc2ccccc2)c1" sits?
Given back: not fulfilled

Next:
Asked: Strictly below 8 min: is that where LC retention time of "CC(=O)Nc1ccc(OC(=O)c2ccccc2OC(C)=O)cc1" sits?
Given back: fulfilled

Asked: Strictly below 8 min: is that where LC retention time of CC(N)C(O)c1ccccc1 (stereo unspecified) sits?
Given back: fulfilled

Asked: Strictly below 8 min: is that where LC retention time of Cc1cccc(C)c1OCC(=O)NC(Cc1ccccc1)C(O)CC(Cc1ccccc1)NC(=O)C(C(C)C)N1CCCNC1=O (stereo unspecified) sits?
Given back: not fulfilled

Asked: Strictly below 8 min: is that where LC retention time of "COc1ccc2[nH]cc(CCN(C(C)C)C(C)C)c2c1" sits?
Given back: fulfilled

Hey, just so you know, these numbers are from the RepoRT retention time repository (doi:10.1016/j.jhazmat.2019.121712).
